Attribution: ChEMBL document CHEMBL2021802

- Assay info: Plasma protein binding in po dosed mouse after 4 hrs
- Assay type: ADME, organism-based
- Condition info: read-out: PPB (converted)
Attribute measured: fraction unbound at 4 h
In your answer, state the number alone without any accompanying words.

Reported fraction unbound at 4 h for "CC(C)[C@]1(C)SC(N[C@H]2C[C@@H]3CC[C@H]2C3)=NC1=O" was 0.099
